target: LmjIPCS (inositol phosphorylceramide synthase from L. major) (Leishmania major, UniProt E9AFX2)
Sequence (E9AFX2 whole entry): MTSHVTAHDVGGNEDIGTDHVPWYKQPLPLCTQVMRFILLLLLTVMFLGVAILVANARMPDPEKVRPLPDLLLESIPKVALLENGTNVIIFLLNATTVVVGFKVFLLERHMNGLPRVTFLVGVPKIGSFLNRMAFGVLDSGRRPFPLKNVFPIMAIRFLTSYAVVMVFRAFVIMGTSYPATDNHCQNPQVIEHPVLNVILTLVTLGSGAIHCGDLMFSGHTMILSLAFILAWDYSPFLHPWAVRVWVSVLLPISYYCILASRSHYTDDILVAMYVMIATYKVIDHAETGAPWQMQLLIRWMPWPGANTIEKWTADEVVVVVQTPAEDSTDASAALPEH
assay explanation: biochemical
Format: biochemical
conditions: NINDS set screen, single concentration printed as 20mM
A collection of compounds and their measured 20mM inhibition LmjIPCS
measured property: 20mM inhibition LmjIPCS (%)

>>> result("CCOC(=O)c1ccc(N)cc1")
46
>>> result("O=C1c2c(O)cccc2Cc2cccc(O)c21")
70
>>> result("CCN(CCCc1ccccc1)CCCc1ccccc1")
70
>>> result("CN(C)c1ccc(C(=C2C=CC(=[N+](C)C)C=C2)c2ccc(N(C)C)cc2)cc1")
64
>>> result("NC[C@@H]1O[C@H](O[C@H]2[C@@H](O)[C@H](O[C@@H]3[C@@H](O)[C@H](N)C[C@H](N)[C@H]3O[C@H]3O[C@H](CN)[C@@H](O)[C@H](O)[C@H]3N)O[C@@H]2CO)[C@H](N)[C@@H](O)[C@@H]1O")
88
>>> result("CS(=O)(=O)OCCCCOS(C)(=O)=O")
44
>>> result("CC[C@]12CCCN3CCc4c(n(c5ccccc45)C(=O)C1)[C@@H]32")
55
>>> result("CC[C@@H](C(=O)[C@@H](C)[C@@H](O)[C@H](C)CCc1ccc(C)c(O)c1C(=O)[O-])[C@H]1O[C@](CC)([C@H]2CC[C@](O)(CC)[C@H](C)O2)C[C@@H]1C.[Na+] [LASALOCID SODIUM]")
41
